System: HCC-2998 colon
assayOverview: NCI tumour cell line growth inhibition, 48 h
measuredQuantity: TGI (µM)
Provide the reading as a plain figure in µM.

Example entries begin here.
| compound | targetOrSystem | measurementUnits | assayValue |
| --- | --- | --- | --- |
| CNc1ccc(CSc2ccc(C)cc2)cc1 | HCC-2998 colon | µM | 83.2 |
| COc1cc([C@H]2c3cc4c(cc3[C@H](NCc3ccc(F)cc3)C3COC(=O)[C@H]32)OCO4)cc(OC)c1O (stereo not given in full) | HCC-2998 colon | µM | 23.8 |
| C[C@]12CC[C@H]3[C@@H](CCC4=C/C(=N/OCCN5CCCCC5)CC[C@@]43C)[C@@H]1CC[C@@H]2O | HCC-2998 colon | µM | 27.4 |

Okay, now this compound:
*Q* Recorded TGI of COc1cc2c(c(OC)c1OC)-c1ccc(SC)c(=O)cc1C(CC(=O)Oc1ccccc1F)C2 (stereo not given) , please.
*A* 0.373
